# TEST METHOD NOTES: pKa of the drug
# Assay type: physicochemical
MEASUREMENT KIND: pKa

>>> reported_value("Cc1ccc(-n2nc(C(C)(C)C)cc2NC(=O)Nc2ccc(OCCN3CCOCC3)c3ccccc23)cc1")
"~6.1"
